Test system: DNA
Assay: Binding affinity for calf thymus DNA at 20 uM after 18 hrs by thermal denaturation assay
Type: nucleic-acid assay
Conditions: Bos taurus
measure-name: ΔTm
Quick note: unit goes after the number.

smiles-data | tested-target | ΔTm
COc1cc2c(cc1OCCCCOc1ccc(OCCCCOc3cc4c(cc3OC)C(=O)N3CCC[C@H]3C=N4)c3c1C(=O)c1ccccc1C3=O)N=C[C@@H]1CCCN1C2=O | DNA | 1.6 °C
COc1cc2c(cc1OCCCOc1ccc(OCCCOc3cc4c(cc3OC)C(=O)N3CCC[C@H]3C=N4)c3c1C(=O)c1ccccc1C3=O)N=C[C@@H]1CCCN1C2=O | DNA | 17.9 °C
COc1cc2c(cc1OCCCCCOc1ccc(OCCCCCOc3cc4c(cc3OC)C(=O)N3CCC[C@H]3C=N4)c3c1C(=O)c1ccccc1C3=O)N=C[C@@H]1CCCN1C2=O | DNA | 6 °C

Value of ΔTm reported for the molecule COc1cc2c(cc1OCCCCC(=O)Nc1cccc3c1C(=O)c1ccccc1C3=O)N=C[C@@H]1CCCN1C2=O is 5.2 °C

For record COc1cc2c(cc1OCCCC(=O)Nc1cccc3c1C(=O)c1ccccc1C3=O)N=C[C@@H]1CCCN1C2=O the listed ΔTm is 9.1 °C

###

Tested on: PC-3
Test: Cytotoxicity against human PC3 cells by sulforhodamine B assay
Assay type: functional, cell-based
Each entry below lists one item and its recorded pIC50 value.
Keep it numeric: pIC50 is minus log10 of the concentration in mol/L.

// known answers, use as guide
smiles-data | tested-target | measure-name | recorded-measurement
COc1cc2c(cc1OCCCCCOc1ccc(OCCCCCOc3cc4c(cc3OC)C(=O)N3CCC[C@H]3C=N4)c3c1C(=O)c1ccccc1C3=O)N=C[C@@H]1CCCN1C2=O | PC-3 | pIC50 | 6.00
COc1cc2c(cc1OCCCCOc1ccc(OCCCCOc3cc4c(cc3OC)C(=O)N3CCC[C@H]3C=N4)c3c1C(=O)c1ccccc1C3=O)N=C[C@@H]1CCCN1C2=O | PC-3 | pIC50 | 5.15
COc1cccc2c1C(=O)c1c(O)c3c(c(O)c1C2=O)C[C@@](O)(C(=O)CO)C[C@@H]3O[C@H]1C[C@H](N)[C@H](O)[C@H](C)O1 | PC-3 | pIC50 | 6.30
COc1cc2c(cc1OCCCCC(=O)Nc1cccc3c1C(=O)c1ccccc1C3=O)N=C[C@@H]1CCCN1C2=O | PC-3 | pIC50 | 6.10
COc1cc2c(cc1OCCCOc1ccc(OCCCOc3cc4c(cc3OC)C(=O)N3CCC[C@H]3C=N4)c3c1C(=O)c1ccccc1C3=O)N=C[C@@H]1CCCN1C2=O | PC-3 | pIC50 | 6.22

API: the following record is the query input.
Please fill in: pIC50 reported for COc1cc2c(cc1OCCCC(=O)Nc1cccc3c1C(=O)c1ccccc1C3=O)N=C[C@@H]1CCCN1C2=O = 6.10
